Experiment: Kinetic solubility of the compound in isotonic buffer at pH 7.4
Type: physicochemical
Settings: read-out: Kinetic_solubility
QUANTITY MEASURED: solubility kinetic (µM)

Worked set:
# COMPOUND, QUANTITY MEASURED, RESULT NUMBER
records = [
    ("Cc1cc2nnc(-c3cccs3)n2nc1Sc1cccc(C(F)(F)F)c1", "solubility kinetic", 3),
    ("COC(=O)[C@H](C)Sc1ccc2nnc(-c3cccs3)n2n1", "solubility kinetic", 99),
    ("COC(=O)C(C)Sc1ccc2ncc(-c3cccs3)n2n1 (stereo unspecified)", "solubility kinetic", 35),
]

[a] FC(F)(F)c1cccc(Sc2ccc3ncc(-c4cccs4)n3c2)c1
[b] COC(=O)C(C)Sc1ccc2nnc(-c3cccs3)n2n1 (stereo unspecified)
[c] CCOC(=O)C(C)Sc1nn2c(-c3ccccc3)nnc2cc1-c1ccccc1 (stereo unspecified)
Task: Let's sort these by solubility kinetic, smallest first. Go ahead? Put the labels in the order asked and list them.
Result: a, c, b
